measured target: T1, HER3 fused with SNAP-Tag, expressed on HEK 293 cells and labelled with Lumi4-Tb (human, UniProt P21860 20-1342, SNAP-tag labelled with BG-Lumi4(Tb))
T1 construct: whole, on cells; the parts follow the printed name HER3-SNAP-Tag; also called HER3-SNAP-Tag; HEK293-HER3-SNAP-Lumi4-Tb cells; not shown: SNAP-Tag (CISbio Tag-lite plasmid)
T1 sequence (P21860 20-1342): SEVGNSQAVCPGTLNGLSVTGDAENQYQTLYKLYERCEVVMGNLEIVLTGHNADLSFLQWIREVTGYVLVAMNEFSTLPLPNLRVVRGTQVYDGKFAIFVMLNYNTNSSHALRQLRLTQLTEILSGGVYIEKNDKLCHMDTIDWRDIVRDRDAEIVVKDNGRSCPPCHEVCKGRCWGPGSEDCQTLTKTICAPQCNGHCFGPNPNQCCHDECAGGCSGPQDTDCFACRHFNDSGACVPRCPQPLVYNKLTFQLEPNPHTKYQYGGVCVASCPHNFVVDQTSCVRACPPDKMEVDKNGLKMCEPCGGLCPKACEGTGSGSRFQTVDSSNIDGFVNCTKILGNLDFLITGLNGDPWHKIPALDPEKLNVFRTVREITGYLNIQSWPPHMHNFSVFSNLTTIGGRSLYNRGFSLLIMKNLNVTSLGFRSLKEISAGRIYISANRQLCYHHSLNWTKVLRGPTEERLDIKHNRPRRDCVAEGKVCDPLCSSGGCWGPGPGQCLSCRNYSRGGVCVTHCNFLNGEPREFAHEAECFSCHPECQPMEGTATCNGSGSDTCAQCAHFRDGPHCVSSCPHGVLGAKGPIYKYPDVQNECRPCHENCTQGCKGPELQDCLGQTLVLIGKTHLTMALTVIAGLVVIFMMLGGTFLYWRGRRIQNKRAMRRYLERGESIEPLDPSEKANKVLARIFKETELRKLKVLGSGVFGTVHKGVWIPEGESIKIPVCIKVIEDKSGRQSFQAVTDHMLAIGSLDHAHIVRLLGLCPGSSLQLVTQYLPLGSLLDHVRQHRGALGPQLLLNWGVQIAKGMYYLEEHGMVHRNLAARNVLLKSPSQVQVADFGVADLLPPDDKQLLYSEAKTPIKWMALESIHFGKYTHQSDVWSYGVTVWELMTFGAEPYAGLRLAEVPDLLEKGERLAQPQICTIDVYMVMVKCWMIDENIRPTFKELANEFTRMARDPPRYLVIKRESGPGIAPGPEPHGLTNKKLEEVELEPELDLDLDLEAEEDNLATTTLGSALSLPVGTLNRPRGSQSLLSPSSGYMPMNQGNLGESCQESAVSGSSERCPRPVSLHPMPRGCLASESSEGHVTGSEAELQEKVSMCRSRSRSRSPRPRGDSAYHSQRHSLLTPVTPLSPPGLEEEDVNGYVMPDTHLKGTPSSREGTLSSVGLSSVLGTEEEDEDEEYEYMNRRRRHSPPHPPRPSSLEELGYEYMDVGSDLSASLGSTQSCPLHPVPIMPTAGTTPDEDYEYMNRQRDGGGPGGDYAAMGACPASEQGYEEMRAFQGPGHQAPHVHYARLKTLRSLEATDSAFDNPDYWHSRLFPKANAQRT
test protocol: Tag-lite FRET, d2-labelled mAb on HEK293 cells with Lumi4(Tb)-labelled HER3-SNAP-Tag
measured parameter: pKd
Bear in mind: pKd is minus log10 of a mol/L concentration; give just that figure.

| binder | pKd |
| --- | --- |
| anti-HER3 mAb NG33 (antibody, V domains shown) VH: DVQLQESGPGLVKPSQSLSLTCSVTGYSITSGFYWSWIRQFPGNKLEWMGYIAYDGTSNYNPSLKNRISITRDTSKNQFFLKLKSVTNEDTPTYYCARGGGYYGQLLDYWGQGTSVTVSS VL: DARMTQSPSSLSASLGDRVTISCRASQDISNYLNWYQQKPDGTVKVLIYNTAKLHSGVPSRFSGSGSGTDYSLTISNLEQEDFATYFCQQGKTLPWTFGGGTKLELK | 8.53 |
| mAb XC252 (antibody, V domains shown, also called XC252-K2 (Lumi4 Tb cryptate labelled)) VH: EVQLQQSGAELVRPGVSVKISCKGSGYTFTDYAMHWVKQSHAKSLEWIGVISTYYGDPRDNQKFKGKATMTVDKSSSTAYMELARLTSEDSAIYYCARGDYDWYAIDYWGQGTSVTVSS VL: DVVMTQTPLSLPVSLGDQASISCRSSQSIVHSDGNTYLEWYLQKPGQSPKLLIYKVSNRFSGVPDRFSGSGSGTDFTLKISRVEAEDLGVYYCFQGSHVPPTFGGGTKLEIK | 8.96 |

Next binder, please.
pKd recorded for this binder, anti-HER3 mAb NG140 (antibody, V domains shown) VH: QVQLKESGPGLVKPSQSLSLTCSVTGYSITSGYYWNWIRQFPGNKLEWMGSIYYDGSNNYNPSLKNRISVTRDTSKNQFFLKLNSVTTEDTATYYCARDYDVGYAMDYWGQGASVTVSS VL: DIVLTQSSSYLSVSLGGRVTITCKASDHINNWLAWYQQKPGNAPRLLISGATSLETGVPSRFSGSGSGKDYTLSITSLQTEDVATYYCQQYWSIPWTFGGGTKLEIK , is 8.21

Numbers sourced from patent US20170306049A1.
